Reported self-cleavage values for a set of variants
B1: Hairpin Ribozyme (parent)
chain: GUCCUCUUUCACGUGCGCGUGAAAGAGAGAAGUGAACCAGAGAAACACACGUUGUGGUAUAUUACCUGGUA

Variants of: B1
experiment: self-cleavage, relative activity (ratio to wild type); higher = more cleavage; co-transcriptional
Lab note: record just the number, no unit beside it.

Here's what some known entries look like.
A45U A49C | 0.134
U9C A36U | 0.444
C46G G68A | 0.123
A39C G40C | 0.0323
U63C A64C | 0.224

## Input Tell us which self-cleavage value is on record for A24U U58G
## Output 0.483
